B1: TOR1AIP2 (parent)
chain: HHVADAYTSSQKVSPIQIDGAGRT

# Variants of: B1
# measurement_description: protein stability index of a GFP-peptide fusion (GPS, HEK-293T) (PSI 1-6); higher = more stable;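 note: lentivirally expressed fusions sorted by FACS into six bins by GFP to DsRed ratio, PSI derived from sequencing read proportions per bin multiplied by bin number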
# condition_label: c terminus: a fixed tail appended
Here the recorded protein stability index is given for each entry.
reported_property: protein stability index

In [3]: df
Out[3]:
    variant_string  assay_result
 0             A6R          3.95
 1            I18Q          3.75
 2             H1G          4.43
 3             H1I          3.14
 4            R23L          3.36
 5            Q17E          3.65
 6            I18G          3.47
 7             V3K          3.19
 8            S10Y          2.94
 9            S14F          3.34
10            G20R          3.38
11            D19F          2.77
12             S9C          1.95
13            I18C          3.61
14            S14A           3.9
15            I16H          3.45
16            I16R          3.94
17            Q11G          3.66
18            G20P          3.28
19            V13W          3.16
20             S9R          3.75
21            I16N          3.88
22            G20A          3.53
23             A4C          2.84
24            G22T          3.09
25            D19E          3.43
26            D19I          2.54
27            P15R          3.26
28             A4D          4.76
29            A21Y          3.22
30            D19M           2.7
31             A6P           4.3
32            P15D          3.81
33             H1V          3.86
34             V3A          1.62
35            T24K           3.9
36             D5I           2.5
37            R23S          3.83
38            T24L          3.09
39            A21K          3.42
40            A21W          2.67
41            P15S          3.41
42            R23K          3.28
43             Y7N          4.89
44             Y7K          4.65
45            K12G          3.48
46            Q11V          2.89
47            S10N          3.21
48            D19S           3.2
49            Q17C          3.26
50             H2A          4.01
51            G22M          3.32
52            D19T          3.07
53            T24I             3
54            A21S          3.67
55            I18E          3.73
56            G20N          3.58
57             V3T           3.1
58             H1L          3.81
59             V3L          3.77
60            A21N          3.44
61            I18M          3.84
62            R23Q          3.71
63            S10M          2.93
64            G20H          3.31
65             H1E          4.66
66             T8L          4.14
67             S9E          3.11
68             A4H          3.43
69             D5R           3.6
70            G20K          3.38
71             H2F          3.77
72            V13E          3.96
73            S14I          2.94
74             A6L           3.2
75            I18F           2.9
76            D19H          2.87
77            T24Q           3.3
78            T24P          3.46
79            Q11C          3.06
80            I16K          4.04
81            I18T          3.87
82             V3Q          2.63
83            Q17T          3.41
84            R23E          3.91
85            S14P          3.25
86             S9P          2.58
87             A6Y          3.32
88             Y7T          4.98
89            K12R          3.34
90             H2P          3.87
